- TESTED_SYSTEM: Mouse GPR120 (Mus musculus, UniProt Q7TMA4)
- Sequence (Q7TMA4 whole entry): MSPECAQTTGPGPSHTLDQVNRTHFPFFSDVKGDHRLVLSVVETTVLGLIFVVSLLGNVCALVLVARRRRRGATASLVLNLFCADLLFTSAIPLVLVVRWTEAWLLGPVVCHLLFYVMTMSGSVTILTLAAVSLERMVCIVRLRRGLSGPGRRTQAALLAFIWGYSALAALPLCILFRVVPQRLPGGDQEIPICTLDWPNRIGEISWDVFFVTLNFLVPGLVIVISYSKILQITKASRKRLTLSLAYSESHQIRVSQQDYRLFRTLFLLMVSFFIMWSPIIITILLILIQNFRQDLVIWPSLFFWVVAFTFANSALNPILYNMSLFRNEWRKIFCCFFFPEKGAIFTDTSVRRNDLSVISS
- ASSAY_DETAILS: Mouse GPR120 b-arrestin
- CONDITION_CONTEXT: Supplementary Table 1
pEC50: −log10 of the molar value.
ATTRIBUTE_MEASURED: pEC50

>  <COMPOUND>
COc1ccc(C(=O)N(CC(C)(C)C)c2cccc(C)n2)c(N2CCC(c3cc4ccc([C@@H](CC(=O)O)C5CC5)cc4o3)CC2)c1 [compound 1]

>  <TESTED_SYSTEM>
Mouse GPR120 (Mus musculus, UniProt Q7TMA4)

>  <EXPERIMENTAL_VALUE>
< 4.30

$$$$
>  <COMPOUND>
CC#C[C@@H](CC(=O)O)c1ccc(OCc2ccc(CN3CCC4(C=Cc5ccccc54)CC3)cc2)cc1 [LY2881835]

>  <TESTED_SYSTEM>
Mouse GPR120 (Mus musculus, UniProt Q7TMA4)

>  <EXPERIMENTAL_VALUE>
< 4.30

$$$$
>  <COMPOUND>
Cc1cc(OCCCS(C)(=O)=O)cc(C)c1-c1cccc(COc2ccc3c(c2)OC[C@H]3CC(=O)O)c1 [TAK-875]

>  <TESTED_SYSTEM>
Mouse GPR120 (Mus musculus, UniProt Q7TMA4)

>  <EXPERIMENTAL_VALUE>
< 4.30

$$$$
